Target: Corticotropin-releasing factor receptor 2/Corticotropin-releasing factor-binding protein (Homo sapiens, UniProt P24387+Q13324)
Sequence (Q13324 whole entry): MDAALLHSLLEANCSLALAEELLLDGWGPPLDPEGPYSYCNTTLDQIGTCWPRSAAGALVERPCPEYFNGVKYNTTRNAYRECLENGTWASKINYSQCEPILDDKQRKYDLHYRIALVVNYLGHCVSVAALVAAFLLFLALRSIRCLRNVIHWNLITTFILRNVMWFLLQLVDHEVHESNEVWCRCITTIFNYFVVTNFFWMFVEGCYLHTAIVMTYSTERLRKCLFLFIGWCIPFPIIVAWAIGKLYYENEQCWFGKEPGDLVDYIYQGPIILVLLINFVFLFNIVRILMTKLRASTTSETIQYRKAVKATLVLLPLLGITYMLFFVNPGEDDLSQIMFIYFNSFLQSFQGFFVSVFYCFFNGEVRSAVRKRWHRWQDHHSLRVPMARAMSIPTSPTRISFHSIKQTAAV
Sequence (P24387 whole entry): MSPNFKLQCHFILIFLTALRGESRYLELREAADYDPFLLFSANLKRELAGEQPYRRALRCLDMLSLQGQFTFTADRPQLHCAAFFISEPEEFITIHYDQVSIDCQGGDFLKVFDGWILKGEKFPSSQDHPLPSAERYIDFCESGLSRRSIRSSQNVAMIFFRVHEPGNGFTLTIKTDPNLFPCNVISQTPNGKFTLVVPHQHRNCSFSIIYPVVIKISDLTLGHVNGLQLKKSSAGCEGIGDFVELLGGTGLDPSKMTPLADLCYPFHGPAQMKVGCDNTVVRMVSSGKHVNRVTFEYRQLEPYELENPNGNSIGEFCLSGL
Test: activators of CRF receptor 2 with binding protein – uHTS hits, confirmation (AID 602473)
Type: functional
Conditions: read-out: EC50_Mean
The source made the active and inactive calls. Cut-off read from the data, not from the text of the source: actives have a measured EC50 and inactives only a lower limit.
Hi! Could you answer with just one of these? active, inactive

Some solved entries appear below for comparison.
CC1=CC(=C(C#N)c2nc3ccccc3s2)C=C(C)N1c1ccc(F)cc1F | active
COc1ccc(C(=O)/C(C#N)=N/Nc2ccccc2[N+](=O)[O-])cc1 | inactive
Cc1cccc(N2C(=O)C(O)=C(C(=O)c3cccs3)C2c2ccc(C(C)C)cc2)n1 (stereo not given) | active
CCN(CC(=O)Nc1c(F)cccc1F)C(=O)c1ccc2c(=O)n3c(nc2c1)CCC3 | inactive
O=C1CCc2cc(S(=O)(=O)N3CCC(C(=O)NC4CCCCCCC4)CC3)ccc2N1 | active

Okay, now this molecule:
Q) For this molecule, state the assay outcome: Cc1ccc2c3ncn(Cc4ccco4)c(O)c-3nc2c1
A) inactive

----------
target: Corticotropin-releasing factor receptor 2/Corticotropin-releasing factor-binding protein (Homo sapiens, UniProt P24387+Q13324); experiment: activators of CRF receptor 2 with binding protein – uHTS hits, confirmation (AID 602473); format: functional; details: read-out: EC50_Mean
Activity calls are given as the source filed them. Cut-off read from the data, not from the text of the source: actives have a measured EC50 and inactives only a lower limit.
Hi! Could you answer with just one of these? active, inactive

Cc1cc(Cl)ccc1OC(C)C(=O)Nc1ccccc1N1CCOCC1 (centres undefined) | active
O=C(Nc1cc(S(=O)(=O)N2CCCCC2)ccc1N1CCCCC1)C1CC1 | inactive
O=C(Nc1cccc(O)c1)c1ccc(NC(=O)c2cccs2)cc1 | inactive
O=c1c2ccccc2sc2ccc(NCCCN3CCOCC3)cc12 | active

Q) For this compound, state the assay outcome: O=C(CNc1ccccc1)N/N=C/c1ccc([N+](=O)[O-])o1
A) inactive

Q) For this compound, state the assay outcome: CCOc1ccc(NC(=O)Nc2cc(C)ccc2OC)cc1
A) inactive

Q) For this compound, state the assay outcome: NC(=O)c1ccc(NCC2COc3ccccc3O2)c([N+](=O)[O-])c1 (centres undefined)
A) inactive

Q) For this compound, state the assay outcome: CCCCC(=O)NC(=S)NNC(=O)c1ccc(OC)cc1
A) active

Q) For this compound, state the assay outcome: Cc1ccc(C(=O)NNC(=S)NC(=O)c2ccco2)cc1
A) active
